Answer each item with its documented apparent KD of K4 kissing-loop reporter.
# Test system: K4 kissing-loop RNA reporter;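 note: bound reporter read as fluorescence of individual clusters on recovered sequencing chips by microscopy, with normalized cluster intensities fitted with a binding model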
# protocol-description: apparent KD of K4 kissing-loop reporter; higher = weaker reporter binding
# measurement-setup: Eterna round: R107; input ligand: tryptophan 2.4 mM
Please append the unit to your numeric answer.

Consider the reported apparent KD of K4 kissing-loop reporter for these sequences:
>  <entry-sequence>
GGUGACGACCAGAGGUGAUGUAUAGUAUCGCGAGGACCGGUACGGCCGCCACUCGUGAAGAGAAAGGAGUGAUGUUCCGUAAUGG [Kazoo C9]

>  <quantity>
apparent KD of K4 kissing-loop reporter

>  <measured-result>
108 nM

$$$$
>  <entry-sequence>
UAGUGGUAGACCAGAUCUACCACUAGGGAUACCAGCCUCGGUCGAGGCCCUUGGCAGCCCAGCGGGUCCAGUGAUGUUGGAUGUC [Raanza]

>  <quantity>
apparent KD of K4 kissing-loop reporter

>  <measured-result>
295 nM

$$$$
>  <entry-sequence>
UUAGUGACAAGUCAGAUUCUGACAAUUGAUACCAGAUAGAAUUCUAUCCCUUGGCAGCAGUGAUGUUGUUGCAAAUAGUCACAUU [AK3 Exc Theophylline A]

>  <quantity>
apparent KD of K4 kissing-loop reporter

>  <measured-result>
232 nM

$$$$

The following sequences each have a reported value; give each one's apparent KD of K4 kissing-loop reporter.
1. UUCUUGAUGGAAACAUCGAGGAUCACUGAUACCAGUAUCGAUAGAUACCCUUGGCAGCAGUGUCGGUGGUCACGAGUGAUGUUCG [Ex Theophylline A K4 12]
2. UGAUAGGACAGAAGGAGCGGUAGUGAUGUUGCCAAAAGUAUAAGGUGUCAAAAGACACCCUGCCAGGUAGGUCGCUGUCCUAUCU
3. AAGGUCACUACUACAGUGAUGUUGUAGGAGCAGGAUAUGCAGAAAUGCAGAAGGGCUCGCUCCAAGUGACCGAAUGAAACAUUCA [Omei KL FMN A SS A v2]
4. UGAUACCAGACGGCCGCCACUCCUGCAGUCAAAGACUGCAAAGGAAUAUUCGUCCAGUGAUGUUGGAGGACCGGGUCUGGUAUCU [TrypBX 11 #SwitchBubble #Palindromic #StaticStem]

Ans.
1. 787 nM
2. 137 nM
3. 482 nM
4. 844 nM

Hello, I would appreciate it if you could give apparent KD of K4 kissing-loop reporter for each entry below.
1. UUUUUGGUUUAGAGUGAUGUUCCUUGUUUUCGAGGACCGGUACGGCCGCCACUCGAAAAGAAAAGAAAAGAAAAGAGUGAUGUUU [BDazzled - #1 SS Tryptophan A]
2. GUGCAGUGAUGUUGCACGAGGAAAGACGAUACCAGCCGUAAAUAAGGCCCUUGGCAGCGUGGGCUAGCACAAAAUAUGCUAGUCU [Laleingeat]

Ans.
258 nM
117 nM

----------
Exercise: for every item that follows, state its recorded apparent KD of MS2 coat protein.
# System: MS2 coat protein
# protocol-description: apparent KD of MS2 coat protein; higher = weaker reporter binding
# measurement-setup: Eterna round: R107; input ligand: theophylline 20 uM
A complete answer gives the number and then names the unit.

Some sequences with recorded apparent KD of MS2 coat protein:
>  <entry-sequence>
AUGCAUAGCACGGCCGCCACUCCAUGUAAACAUGAGGAUCACCCAUGUAAUUUGGAUGUUUUAUAGAGGACCGGGUGAAAUGCAA [JR_ExcTryptoB_Sub004]

>  <apparent KD of MS2 coat protein>
0.0101 µM

$$$$
>  <entry-sequence>
UUAUUUAACGGAAGGAGCGCGGAAAUUAAGGUGGGUAAACAUGAGGAUCACCCAUGUAAUCCGCAGGUAGGUCGCCGAUAUUUAU [#24 Exclusion - Arginine B]

>  <apparent KD of MS2 coat protein>
0.136 µM

$$$$
>  <entry-sequence>
AAACAUGACAUGGAUACCAGACACAUGAGGAUCACCCAUGUUGAGGAUCACCCAUGUCCCGUCCCUUGGCAGCCAGCAUGAGGAU [Exclusion Theophylline B 2]

>  <apparent KD of MS2 coat protein>
0.0116 µM

$$$$
>  <entry-sequence>
GGACAUGCAGGAAGGAGCGACACAGCAGAAACUGCAAAUCCUCCACACGAGGAUCACCCGUGUCAGGUAGGUCGCCUGCAUGUCG [ArgXB 14 #Zipper #MS2Left #StaticStem #Blueprint]

>  <apparent KD of MS2 coat protein>
0.0991 µM

$$$$
>  <entry-sequence>
AUAACAGUGUCGGCCGCCACUAGAACACAUGAGGAUCACCCAUGUGGUGGUACCUCCUAAGACGAUAGGACCGGGACCCAUCUAC [theeternabot_exclusion_MS2_Trp_B_12]

>  <apparent KD of MS2 coat protein>
0.108 µM

$$$$

The record that follows has no apparent KD of MS2 coat protein shown yet.
Qu. Please look at this sequence and report its apparent KD of MS2 coat protein: UGUUUGGUGCGCGAGUGUUGGAUAAUUGAUACCAGUGUAGAAGAGCGCCCUUGGCAGCGAAUCCUAACAUGAGGAUCACCCAUGU [5.W]
Ans. 0.0547 µM
